# procedure_details: Thermodynamic stability study: slurry competition among free acid Form A/B/C/D
# Format: physicochemical
# condition_description: anhydrous solvent systems, slurry at RT, 50° C. and 70° C., ~7 days
measurement_name: form after slurry competition (XRPD), thermodynamic stability

{"compound": "Cc1ccccc1-c1ccc(-c2cc(C(=O)O)c3c(c2)nnn3C)cc1 [free acid Form B]", "result": "converted to Form D"}
{"compound": "Cc1ccccc1-c1ccc(-c2cc(C(=O)O)c3c(c2)nnn3C)cc1 [free acid Form C]", "result": "converted to Form D"}
{"compound": "Cc1ccccc1-c1ccc(-c2cc(C(=O)O)c3c(c2)nnn3C)cc1 [free acid Form A]", "result": "converted to Form D"}

====

# procedure_details: Kinetic solubility in bio-relevant media (SGF/FaSSGF, FaSSIF, FeSSIF) and H2O at 37° C., with pH of supernatant
# Format: physicochemical
# condition_description: FeSSIF, 37 °C, pH 5, fessif, thermodynamic from solid, Table 12, FeSSIF, 30 min
Counter-ions that a name gives are not always drawn.
measurement_name: solubility at 30 min (µg/mL)
The answer is to be given in µg/mL; state only the numeric part.

Could you share which solubility at 30 min value was measured for Cc1ccccc1-c1ccc(-c2cc(C(=O)O)c3c(c2)nnn3C)cc1 [Tris salt Form C] ? 270

====

# procedure_details: Kinetic solubility in bio-relevant media (SGF/FaSSGF, FaSSIF, FeSSIF) and H2O at 37° C., with pH of supernatant
# Assay type: physicochemical
# condition_description: FeSSIF, 37 °C, pH 5, fessif, thermodynamic from solid, Table 12, FeSSIF, 1 h
Counter-ions that a name gives are not always drawn.
measurement_name: solubility at 1 h (µg/mL)
Kindly answer with a numeric value in µg/mL, unit omitted.

solubility at 1 h for Cc1ccccc1-c1ccc(-c2cc(C(=O)O)c3c(c2)nnn3C)cc1 [Tris salt Form C] ? 50

====

# procedure_details: Kinetic solubility in bio-relevant media (SGF/FaSSGF, FaSSIF, FeSSIF) and H2O at 37° C., with pH of supernatant
# Format: physicochemical
# condition_description: FaSSIF, 37 °C, pH 6.5, fassif, thermodynamic from solid, Table 12, FaSSIF, 30 min
Structures can show the parent of a compound that is named as a salt.
measurement_name: solubility at 30 min (µg/mL)
Return type: number; implicit unit µg/mL.

I'd like to know its solubility at 30 min. The compound in question is Cc1ccccc1-c1ccc(-c2cc(C(=O)O)c3c(c2)nnn3C)cc1 [Tris salt Form C] 320

====

# procedure_details: Kinetic solubility in bio-relevant media (SGF/FaSSGF, FaSSIF, FeSSIF) and H2O at 37° C., with pH of supernatant
# Assay type: physicochemical
# condition_description: water, 37 °C, thermodynamic from solid, Table 12, H2O, 24 h
Structures can show the parent of a compound that is named as a salt.
measurement_name: solubility at 24 h (µg/mL)
The reply should be a number in µg/mL, with the unit left off.

Give its solubility at 24 h value. Item: Cc1ccccc1-c1ccc(-c2cc(C(=O)O)c3c(c2)nnn3C)cc1 [Tris salt Form C] 400

====

# procedure_details: Thermodynamic stability study: slurry competition among free acid Form A/B/C/D
# Format: physicochemical
# condition_description: solvent mixtures with different water activities (aw: 0~1), RT, 50° C. and 70° C., ~1 month
measurement_name: form after slurry competition (XRPD), thermodynamic stability

{"molecule": "Cc1ccccc1-c1ccc(-c2cc(C(=O)O)c3c(c2)nnn3C)cc1 [free acid Form C]", "result": "converted to Form D"}
{"molecule": "Cc1ccccc1-c1ccc(-c2cc(C(=O)O)c3c(c2)nnn3C)cc1 [free acid Form A]", "result": "converted to Form D"}
{"molecule": "Cc1ccccc1-c1ccc(-c2cc(C(=O)O)c3c(c2)nnn3C)cc1 [free acid Form B]", "result": "converted to Form D"}
